Where do these numbers come from? They come from patent US20050288323A1.

Biological target: human histamine H3 receptor (Homo sapiens, UniProt Q9Y5N1)
Construct: One microgram of supercoiled H3 receptor cDNA was added to the cells and mixed; expressed in transfected cells; membranes
Sequence (Q9Y5N1 whole entry): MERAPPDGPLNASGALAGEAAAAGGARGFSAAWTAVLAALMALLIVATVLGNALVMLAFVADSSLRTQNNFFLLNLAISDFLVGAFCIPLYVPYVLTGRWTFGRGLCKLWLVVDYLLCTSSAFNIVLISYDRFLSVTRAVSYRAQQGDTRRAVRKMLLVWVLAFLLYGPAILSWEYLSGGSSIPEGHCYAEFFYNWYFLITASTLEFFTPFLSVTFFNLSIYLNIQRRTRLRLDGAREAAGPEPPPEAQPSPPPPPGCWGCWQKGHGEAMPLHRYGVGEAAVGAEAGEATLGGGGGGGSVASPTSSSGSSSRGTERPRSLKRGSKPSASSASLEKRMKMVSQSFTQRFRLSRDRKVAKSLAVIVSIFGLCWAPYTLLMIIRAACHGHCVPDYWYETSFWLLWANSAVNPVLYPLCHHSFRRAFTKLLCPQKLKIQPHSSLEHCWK
Assay: [3H]-N-methylhistamine binding
Conditions: [3H]-N-methylhistamine 0.8 nM, membranes of H3 receptor-expressing SK-N-MC cells
Please assign Not fulfilled whenever Ki is at or above 300 nM, and Fulfilled whenever it is below.

- CN(c1ccc([C@H]2CC[C@H]3CCCCN32)cc1)S(C)(=O)=O (racemic) [Example 99]: Not fulfilled
- CN(c1ccc([C@H]2CC[C@H]3CCCCN32)cc1)C1CCN(S(C)(=O)=O)CC1 (racemic) [Example 103]: Fulfilled
- COc1ccccc1[C@H]1C[C@@H]2CCCCN2C1 (relative stereo) [Example 70]: Not fulfilled
- c1csc(-c2ccc([C@H]3CC[C@H]4CCCCN43)cc2)c1 (racemic) [Example 50]: Fulfilled
- c1cc([C@@H]2CC[C@@H]3CCCCN32)ccc1NCCCN1CCCCC1 (relative stereo) [Example 106]: Fulfilled
- c1cc([C@H]2CC[C@H]3CCCCN32)ccc1OCCCN1CCCCC1 (racemic) [Example 92]: Fulfilled
- CS(=O)(=O)Nc1ccc([C@@H]2CC[C@@H]3CCCCN32)cc1 (relative stereo) [Example 97]: Not fulfilled
- C[Si](C)(C)C#Cc1ccc([C@H]2CC[C@H]3CCCCN32)cc1 (racemic) [Example 74]: Not fulfilled
